Exercise: for every item that follows, state its recorded GI50.
# Tested on: UACC-62
# Test protocol: NCI tumour cell line growth inhibition, 48 h
Calls of active or inactive are those of the source. No stated cut-off is given here; in the data, active = GI50 up to about 1.1 µM and inactive = higher.

Field: example entries. Status: answers known.
>  <Compound>
O=[N+]([O-])/C=C1\COCc2cc3c(cc21)OCO3

>  <GI50>
21.1 µM (inactive)

$$$$
>  <Compound>
COc1cccc2c1NC(=O)Cc1c-2[nH]c2ccccc12

>  <GI50>
> 100 µM (inactive)

$$$$
>  <Compound>
CC(=O)CC(=O)Nc1ccc(OS(N)(=O)=O)cc1

>  <GI50>
> 100 µM (inactive)

$$$$
>  <Compound>
COc1cc(/C=C2\CCC(C)C3=C(c4cc(OC)c(OC)c(OC)c4)C(C#N)=C(N)OC32)cc(OC)c1OC (centres undefined)

>  <GI50>
2.45 µM (inactive)

$$$$
>  <Compound>
O=c1c2c([nH]c3cc4c(cc13)OCO4)-c1ccccc1C2

>  <GI50>
17.1 µM (inactive)

$$$$
>  <Compound>
CC(=O)CCC1(C(=O)OCC(C)C)CCCC1=O (centres undefined)

>  <GI50>
> 100 µM (inactive)

$$$$
>  <Compound>
CC1C2CC(CC(=O)N2)C1(C)C (centres undefined)

>  <GI50>
> 100 µM (inactive)

$$$$
>  <Compound>
COc1ccc2c(c1)C(OC)C1c3c(cc4c(c3-2)OCO4)CCN1C (centres undefined)

>  <GI50>
2.11 µM (inactive)

$$$$

Here is the next item to consider.
Briefly, GI50 measured for COc1cc(/C=C2\[C@@H]3NC(Cc4c(OC)c(C)c(OC)c(OC)c43)C(=O)N2Cc2ccccc2)c(OC)c(C)c1OC : 47.5 µM (inactive)
